Where these numbers come from: the RNAGym collection of RNA variant scans (doi:10.7554/elife.80360)

B1: CPEB3 Ribozyme (parent)
chain: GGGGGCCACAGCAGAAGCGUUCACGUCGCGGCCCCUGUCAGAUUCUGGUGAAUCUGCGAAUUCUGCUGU

variants of: B1; test: self-cleavage, relative activity (ratio to wild type); higher = more cleavage; co-transcriptional
Field: class. Source value: self-cleavage. Ranges: low end: < 0.5; middle: ≥ 0.5 and < 0.9; high end: ≥ 0.9

Below, 9 variants whose answers are already recorded.
Asked: // return the class label for G4U C63A
Given back: low end

Asked: // return the class label for G14C G48U
Given back: middle

Asked: // return the class label for C27U U61G
Given back: low end

Asked: // return the class label for C6A U67G
Given back: middle

Asked: // return the class label for A15G A52U
Given back: high end

Asked: // return the class label for G11A A52G
Given back: high end

Asked: // return the class label for A10U C45G
Given back: high end

Asked: // return the class label for G17U G28U
Given back: low end

Asked: // return the class label for A8G U69A
Given back: high end

Now look at this one.
Asked: // return the class label for G31A G58C
Given back: middle
